system name: human PDE2A1 (Homo sapiens)
Construct: GST; purchased BPS Bioscience (San Diego, Calif.) 60020; host or cells: insect cells
Sequence (O00408 1-920 isoform O00408-2): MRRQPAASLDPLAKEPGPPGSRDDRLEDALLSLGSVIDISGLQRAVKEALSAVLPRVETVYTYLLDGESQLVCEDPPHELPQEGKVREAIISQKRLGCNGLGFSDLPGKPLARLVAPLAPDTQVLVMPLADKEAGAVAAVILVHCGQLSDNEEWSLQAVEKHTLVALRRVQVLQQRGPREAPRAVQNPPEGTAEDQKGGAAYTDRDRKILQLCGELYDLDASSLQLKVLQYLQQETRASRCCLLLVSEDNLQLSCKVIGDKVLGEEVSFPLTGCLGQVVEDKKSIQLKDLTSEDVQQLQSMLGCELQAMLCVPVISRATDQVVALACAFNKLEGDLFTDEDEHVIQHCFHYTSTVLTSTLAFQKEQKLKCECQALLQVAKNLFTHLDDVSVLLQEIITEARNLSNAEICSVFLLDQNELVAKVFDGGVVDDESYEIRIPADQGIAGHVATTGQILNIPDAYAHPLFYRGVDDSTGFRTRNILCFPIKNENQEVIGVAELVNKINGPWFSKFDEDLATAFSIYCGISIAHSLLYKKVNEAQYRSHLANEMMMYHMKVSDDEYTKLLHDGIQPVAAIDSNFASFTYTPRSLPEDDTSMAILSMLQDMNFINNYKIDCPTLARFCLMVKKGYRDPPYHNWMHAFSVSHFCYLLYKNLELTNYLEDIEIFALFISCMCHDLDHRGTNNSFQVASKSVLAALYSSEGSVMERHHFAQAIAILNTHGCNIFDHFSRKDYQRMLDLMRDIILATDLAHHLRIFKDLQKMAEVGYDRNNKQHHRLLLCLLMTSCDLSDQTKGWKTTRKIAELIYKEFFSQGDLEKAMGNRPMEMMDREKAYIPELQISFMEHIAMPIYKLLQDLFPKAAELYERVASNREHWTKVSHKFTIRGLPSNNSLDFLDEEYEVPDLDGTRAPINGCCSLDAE
test method notes: IMAP FP PDE assay, human PDE2A1
Assay type: biochemical
measurement parameters: Lab A; read-out: Human PDE2 Ki (nM) Lab A
Entries and their measured Ki follow.
assay readout: Ki

>  <compound>
COc1ccc(Cc2nc3c(c(C)nn3C(C)c3ccc(C(F)(F)F)cc3)c(=O)[nH]2)cc1 (stereo not shown) [Example 46]

>  <result>
8.6 nM

$$$$
>  <compound>
Cc1nc2c(c(CO)nn2C(c2ccc(C(F)(F)F)cc2)C(C)C)c(=O)[nH]1 (stereo not shown) [Example 5]

>  <result>
0.56 nM

$$$$
>  <compound>
Cc1nc2c(c(CF)nn2C(C)c2ccc(C(F)(F)F)c(F)c2)c(=O)[nH]1 (stereo not shown) [Example 230]

>  <result>
1.5 nM

$$$$
>  <compound>
Cc1nn(C(C)c2ccc(C(F)(F)F)cc2)c2nc(C3CCC3)[nH]c(=O)c12 (stereo not shown) [Example 39]

>  <result>
84 nM

$$$$
